Target Or Test System: HiBit-BRM fusion protein (Homo sapiens, UniProt P51531)
Construct: expressed in transfected cells
Sequence (P51531 whole entry, the tested form may be a part): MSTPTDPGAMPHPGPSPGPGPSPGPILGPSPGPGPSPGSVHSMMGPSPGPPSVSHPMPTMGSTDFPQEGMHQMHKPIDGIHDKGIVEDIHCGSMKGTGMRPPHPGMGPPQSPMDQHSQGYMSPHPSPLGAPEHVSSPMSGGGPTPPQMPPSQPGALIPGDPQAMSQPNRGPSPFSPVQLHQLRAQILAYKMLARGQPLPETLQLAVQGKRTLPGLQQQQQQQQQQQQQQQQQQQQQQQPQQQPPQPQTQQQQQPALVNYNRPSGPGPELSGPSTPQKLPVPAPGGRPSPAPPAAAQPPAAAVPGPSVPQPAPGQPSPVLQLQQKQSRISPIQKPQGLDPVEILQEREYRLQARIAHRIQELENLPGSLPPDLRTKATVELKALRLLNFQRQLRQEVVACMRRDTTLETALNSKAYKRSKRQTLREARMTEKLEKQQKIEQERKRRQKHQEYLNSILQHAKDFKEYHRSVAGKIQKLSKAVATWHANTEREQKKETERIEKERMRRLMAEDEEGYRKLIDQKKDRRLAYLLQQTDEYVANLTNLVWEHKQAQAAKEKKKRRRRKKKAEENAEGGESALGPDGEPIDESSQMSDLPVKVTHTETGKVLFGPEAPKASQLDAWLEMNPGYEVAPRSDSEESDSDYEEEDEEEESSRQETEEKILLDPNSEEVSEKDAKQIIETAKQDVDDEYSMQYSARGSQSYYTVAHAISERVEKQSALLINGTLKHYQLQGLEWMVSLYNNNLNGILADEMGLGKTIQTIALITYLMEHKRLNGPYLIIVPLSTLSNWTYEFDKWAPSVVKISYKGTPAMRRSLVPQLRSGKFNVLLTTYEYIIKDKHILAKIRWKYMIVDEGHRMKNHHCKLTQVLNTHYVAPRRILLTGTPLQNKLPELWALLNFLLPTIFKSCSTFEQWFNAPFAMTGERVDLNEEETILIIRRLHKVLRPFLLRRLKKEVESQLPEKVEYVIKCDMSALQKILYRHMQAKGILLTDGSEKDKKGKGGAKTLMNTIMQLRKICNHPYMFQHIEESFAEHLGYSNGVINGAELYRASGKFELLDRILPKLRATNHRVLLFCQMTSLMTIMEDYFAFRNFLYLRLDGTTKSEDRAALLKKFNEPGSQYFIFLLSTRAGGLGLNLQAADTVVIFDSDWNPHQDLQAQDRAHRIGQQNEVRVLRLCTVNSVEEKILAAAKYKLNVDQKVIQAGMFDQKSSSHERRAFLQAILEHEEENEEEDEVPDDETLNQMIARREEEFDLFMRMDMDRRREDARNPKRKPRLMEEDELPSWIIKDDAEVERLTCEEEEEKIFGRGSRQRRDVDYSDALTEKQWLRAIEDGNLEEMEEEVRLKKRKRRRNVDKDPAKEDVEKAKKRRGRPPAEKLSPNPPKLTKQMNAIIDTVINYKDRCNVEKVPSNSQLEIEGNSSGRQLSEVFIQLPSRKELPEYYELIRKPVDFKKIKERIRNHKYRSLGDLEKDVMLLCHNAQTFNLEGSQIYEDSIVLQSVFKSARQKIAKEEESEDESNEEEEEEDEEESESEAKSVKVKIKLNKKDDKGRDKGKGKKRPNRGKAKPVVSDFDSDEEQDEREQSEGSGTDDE
Experiment: HiBiT-BRM cell-based degradation assay (Nano-Glo HiBiT Lytic Detection, 24 h)
Details: HeLa cells expressing HiBiT-BRM, read-out: BRM HiBit Degradation IC50
Counter-ions that a name gives are not always drawn.
DC50 listing for selected compounds.

{"Compound": "CN(CC(=O)NCCCCCCCCNC(=O)COc1cccc2c1C(=O)N(C1CCC(=O)NC1=O)C2=O)c1cc(-c2cccc(-c3csc(NC(=O)CNC(=O)c4ccn(S(C)(=O)=O)c4)n3)c2)ccn1 (stereo not drawn)", "Target Or Test System": "HiBit-BRM fusion protein (Homo sapiens, UniProt P51531)", "DC50": "> 10 µM"}
{"Compound": "Cc1ncsc1-c1ccc(CNC(=O)[C@@H]2C[C@@H](O)CN2C(=O)[C@@H](NC(=O)CCCCCCCCCCCCCCC(=O)NCc2cccc(-c3cccc(-c4csc(NC(=O)CNC(=O)c5ccn(S(C)(=O)=O)c5)n4)c3)c2)C(C)(C)C)cc1", "Target Or Test System": "HiBit-BRM fusion protein (Homo sapiens, UniProt P51531)", "DC50": "> 10 µM"}
{"Compound": "Cc1ncsc1-c1ccc(CNC(=O)[C@@H]2C[C@@H](O)CN2C(=O)[C@@H](NC(=O)CCCCCCCCCCCCC(=O)NCc2ccc(COC[C@H](NC(=O)c3ccn(S(C)(=O)=O)c3)C(=O)Nc3nc(-c4ccccc4)cs3)cc2)C(C)(C)C)cc1", "Target Or Test System": "HiBit-BRM fusion protein (Homo sapiens, UniProt P51531)", "DC50": "> 10 µM"}
{"Compound": "Cc1ncsc1-c1ccc(CNC(=O)C2CC(O)CN2C(=O)C(NC(=O)CCCCCCCNC(=O)c2ccc(COCC(NC(=O)c3ccn(S(C)(=O)=O)c3)C(=O)Nc3nc(-c4ccccc4)cs3)cc2)C(C)(C)C)cc1 (stereo not drawn)", "Target Or Test System": "HiBit-BRM fusion protein (Homo sapiens, UniProt P51531)", "DC50": "0.1 to 1 µM"}
{"Compound": "CS(=O)(=O)n1ccc(C(=O)NCC(=O)Nc2nc(-c3cccc(-c4ccnc(C5(C(=O)N6CC(CCOc7cccc8c7C(=O)N(C7CCC(=O)NC7=O)C8=O)C6)CC5)c4)c3)cs2)c1 (stereo not drawn)", "Target Or Test System": "HiBit-BRM fusion protein (Homo sapiens, UniProt P51531)", "DC50": "> 10 µM"}
{"Compound": "CS(=O)(=O)n1ccc(C(=O)NCC(=O)Nc2nc(C3CCCN(C(=O)CCCCOc4cccc5c4C(=O)N(C4CCC(=O)NC4=O)C5=O)C3)cs2)c1 (stereo not drawn)", "Target Or Test System": "HiBit-BRM fusion protein (Homo sapiens, UniProt P51531)", "DC50": "> 10 µM"}
{"Compound": "CS(=O)(=O)n1ccc(C(=O)NCC(=O)Nc2nc(-c3cccc(-c4ccnc(N5CCN(C(=O)C6CC6CNC(=O)COc6ccc7c(c6)C(=O)N(C6CCC(=O)NC6=O)C7=O)CC5)c4)c3)cs2)c1 (stereo not drawn)", "Target Or Test System": "HiBit-BRM fusion protein (Homo sapiens, UniProt P51531)", "DC50": "> 10 µM"}
{"Compound": "CS(=O)(=O)n1ccc(C(=O)N[C@@H](COCCCC(=O)NCCCCS(=O)(=O)CCCNc2cccc3c2C(=O)N(C2CCC(=O)NC2=O)C3=O)C(=O)Nc2nc(-c3ccccc3)cs2)c1 (stereo partly drawn)", "Target Or Test System": "HiBit-BRM fusion protein (Homo sapiens, UniProt P51531)", "DC50": "> 10 µM"}
{"Compound": "CS(=O)(=O)n1ccc(C(=O)N[C@@H](CCCCNC(=O)CCOCCOCCNc2ccc3c(c2)C(=O)N(C2CCC(=O)NC2=O)C3=O)C(=O)Nc2nc(-c3ccccc3)cs2)c1 (stereo partly drawn)", "Target Or Test System": "HiBit-BRM fusion protein (Homo sapiens, UniProt P51531)", "DC50": "> 10 µM"}
{"Compound": "CS(=O)(=O)n1ccc(C(=O)N[C@@H](CCOCCCC(=O)NCCCC#Cc2ccc3c(c2)C(=O)N(C2CCC(=O)NC2=O)C3=O)C(=O)Nc2nc(-c3ccccc3)cs2)c1 (stereo partly drawn)", "Target Or Test System": "HiBit-BRM fusion protein (Homo sapiens, UniProt P51531)", "DC50": "> 10 µM"}
{"Compound": "Cc1ncsc1-c1ccc(CNC(=O)[C@@H]2C[C@@H](O)CN2C(=O)[C@@H](NC(=O)CCN2CCC(C(=O)NCc3cccc(-c4cccc(-c5csc(NC(=O)CNC(=O)c6ccn(S(C)(=O)=O)c6)n5)c4)c3)CC2)C(C)(C)C)cc1 [Compound 155, formate]", "Target Or Test System": "HiBit-BRM fusion protein (Homo sapiens, UniProt P51531)", "DC50": "> 10 µM"}
{"Compound": "CS(=O)(=O)n1ccc(C(=O)NCC(=O)Nc2nc(-c3cccc(-c4ccnc(C5(C(=O)N6CCN(CCOc7ccc8c(c7)C(=O)N(C7CCC(=O)NC7=O)C8=O)CC6)CC5)c4)c3)cs2)c1 (stereo not drawn)", "Target Or Test System": "HiBit-BRM fusion protein (Homo sapiens, UniProt P51531)", "DC50": "0.1 to 1 µM"}
{"Compound": "Cc1ncsc1-c1ccc(CNC(=O)[C@@H]2C[C@@H](O)CN2C(=O)[C@@H](NC(=O)CCCCCCCCCCCCC(=O)NCc2cccc(-c3cccc(-c4csc(NC(=O)CNC(=O)c5ccn(S(C)(=O)=O)c5)n4)c3)c2)C(C)(C)C)cc1", "Target Or Test System": "HiBit-BRM fusion protein (Homo sapiens, UniProt P51531)", "DC50": "0.1 to 1 µM"}
{"Compound": "Cc1ncsc1-c1ccc(CNC(=O)[C@@H]2C[C@@H](O)CN2C(=O)[C@@H](NC(=O)CCCCCCC(=O)NCc2cccc(-c3cccc(-c4csc(NC(=O)CNC(=O)c5ccn(S(C)(=O)=O)c5)n4)c3)c2)C(C)(C)C)cc1", "Target Or Test System": "HiBit-BRM fusion protein (Homo sapiens, UniProt P51531)", "DC50": "0.1 to 1 µM"}
{"Compound": "CN(CCNC(=O)COc1ccc2c(c1)C(=O)N(C1CCC(=O)NC1=O)C2=O)CCNC(=O)C1(c2cc(-c3cccc(-c4csc(NC(=O)CNC(=O)c5ccn(S(C)(=O)=O)c5)n4)c3)ccn2)CC1 (stereo not drawn)", "Target Or Test System": "HiBit-BRM fusion protein (Homo sapiens, UniProt P51531)", "DC50": "> 10 µM"}
{"Compound": "CS(=O)(=O)n1ccc(C(=O)N[C@@H](COCc2ccc(C(=O)N3CCN(CCOc4ccc5c(c4)C(=O)N(C4CCC(=O)NC4=O)C5=O)CC3)cc2)C(=O)Nc2nc(-c3ccccc3)cs2)c1 (stereo partly drawn)", "Target Or Test System": "HiBit-BRM fusion protein (Homo sapiens, UniProt P51531)", "DC50": "> 10 µM"}
{"Compound": "CS(=O)(=O)n1ccc(C(=O)N[C@@H](COCCCC(=O)NCCNc2ccc3c(c2)C(=O)N(C2CCC(=O)NC2=O)C3=O)C(=O)Nc2nc(-c3ccccc3)cs2)c1 (stereo partly drawn)", "Target Or Test System": "HiBit-BRM fusion protein (Homo sapiens, UniProt P51531)", "DC50": "> 10 µM"}
{"Compound": "Cc1ncsc1-c1ccc(CNC(=O)[C@@H]2C[C@@H](O)CN2C(=O)[C@@H](NC(=O)COCCOCCNC(=O)C2(c3cc(-c4cccc(-c5csc(NC(=O)CNC(=O)c6ccn(S(C)(=O)=O)c6)n5)c4)ccn3)CC2)C(C)(C)C)cc1", "Target Or Test System": "HiBit-BRM fusion protein (Homo sapiens, UniProt P51531)", "DC50": "0.1 to 1 µM"}

* * *

Target Or Test System: HiBit-BRG1 fusion protein (Homo sapiens, UniProt P51532)
Construct: expressed in transfected cells
Sequence (P51532 whole entry, the tested form may be a part): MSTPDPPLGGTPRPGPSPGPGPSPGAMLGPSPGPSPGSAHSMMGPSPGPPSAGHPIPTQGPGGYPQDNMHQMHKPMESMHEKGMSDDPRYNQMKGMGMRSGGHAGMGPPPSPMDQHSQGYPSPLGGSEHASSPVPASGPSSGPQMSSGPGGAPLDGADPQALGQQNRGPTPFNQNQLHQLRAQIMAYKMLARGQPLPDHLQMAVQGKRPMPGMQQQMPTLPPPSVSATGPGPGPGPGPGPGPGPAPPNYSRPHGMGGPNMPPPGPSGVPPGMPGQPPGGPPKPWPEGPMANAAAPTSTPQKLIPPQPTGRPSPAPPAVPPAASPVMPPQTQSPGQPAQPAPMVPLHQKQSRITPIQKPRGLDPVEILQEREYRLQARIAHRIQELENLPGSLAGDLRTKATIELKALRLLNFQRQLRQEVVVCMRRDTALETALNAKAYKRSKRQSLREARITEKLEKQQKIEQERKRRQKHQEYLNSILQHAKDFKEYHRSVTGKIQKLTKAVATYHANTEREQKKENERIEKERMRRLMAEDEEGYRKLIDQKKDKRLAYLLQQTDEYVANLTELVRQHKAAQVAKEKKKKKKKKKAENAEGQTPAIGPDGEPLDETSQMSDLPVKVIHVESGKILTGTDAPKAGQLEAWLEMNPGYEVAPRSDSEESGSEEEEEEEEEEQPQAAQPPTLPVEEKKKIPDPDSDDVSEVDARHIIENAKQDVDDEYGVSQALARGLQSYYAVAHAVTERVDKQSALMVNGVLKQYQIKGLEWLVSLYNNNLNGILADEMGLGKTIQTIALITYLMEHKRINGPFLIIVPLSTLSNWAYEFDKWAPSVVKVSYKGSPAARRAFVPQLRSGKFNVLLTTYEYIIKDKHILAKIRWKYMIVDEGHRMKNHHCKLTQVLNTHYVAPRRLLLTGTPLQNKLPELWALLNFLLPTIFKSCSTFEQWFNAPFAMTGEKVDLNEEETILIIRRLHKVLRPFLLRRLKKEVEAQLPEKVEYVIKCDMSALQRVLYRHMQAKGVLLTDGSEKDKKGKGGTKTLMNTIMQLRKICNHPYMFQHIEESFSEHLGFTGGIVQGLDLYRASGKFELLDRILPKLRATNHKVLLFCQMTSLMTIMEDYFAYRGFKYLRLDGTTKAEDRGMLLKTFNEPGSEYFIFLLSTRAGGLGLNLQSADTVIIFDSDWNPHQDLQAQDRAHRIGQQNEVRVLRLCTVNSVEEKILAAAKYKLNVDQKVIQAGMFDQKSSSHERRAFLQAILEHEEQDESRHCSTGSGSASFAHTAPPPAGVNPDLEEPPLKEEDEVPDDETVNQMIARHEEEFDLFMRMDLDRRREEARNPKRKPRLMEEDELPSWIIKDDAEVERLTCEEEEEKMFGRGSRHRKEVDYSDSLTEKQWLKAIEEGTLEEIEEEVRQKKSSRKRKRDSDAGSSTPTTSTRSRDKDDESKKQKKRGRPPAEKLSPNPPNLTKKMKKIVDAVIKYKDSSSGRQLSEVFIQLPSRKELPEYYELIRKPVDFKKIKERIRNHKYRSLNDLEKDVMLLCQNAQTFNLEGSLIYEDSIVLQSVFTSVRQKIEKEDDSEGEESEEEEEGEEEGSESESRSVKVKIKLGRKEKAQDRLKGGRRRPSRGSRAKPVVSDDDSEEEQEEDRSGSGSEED
Experiment: HiBiT-BRG1 cell-based degradation assay (Nano-Glo HiBiT Lytic Detection, 24 h)
Details: HeLa, HeLa cells expressing HiBit-BRG1 and LgBit, top dose 30 μM, read-out: BRG1 HiBit Degradation Maximum measured
Where a name gives a salt, the structure may show the parent alone.
Metric: Dmax

{"Molecule": "Cc1c(C(=O)NCC(=O)Nc2nc(-c3cccc(-c4ccnc(N(C)CC(=O)NCCOCCOCCNc5cccc6c5C(=O)N(C5CCC(=O)NC5=O)C6=O)c4)c3)cs2)cn(S(=O)(=O)C(C)C)c1C (stereo not drawn)", "Metric": "Dmax", "Measurement": "< 50%"}
{"Molecule": "CS(=O)(=O)n1ccc(C(=O)NCC(=O)Nc2nc(-c3cccc(-c4ccnc(C5(C(=O)NCCCCCNc6cccc7c6C(=O)N(C6CCC(=O)NC6=O)C7=O)CC5)c4)c3)cs2)c1 (stereo not drawn)", "Metric": "Dmax", "Measurement": "> 75%"}
{"Molecule": "CS(=O)(=O)n1ccc(C(=O)N[C@@H](COCc2ccc(C(=O)NCCOc3cccc(OCCNc4ccc5c(c4)C(=O)N(C4CCC(=O)NC4=O)C5=O)c3)cc2)C(=O)Nc2nc(-c3ccccc3)cs2)c1 (stereo partly drawn)", "Metric": "Dmax", "Measurement": "50 to 75%"}
{"Molecule": "CS(=O)(=O)n1ccc(C(=O)N[C@@H](COCc2ccc(C(=O)NCCOCCOCCNC(=O)COc3cccc4c3C(=O)N(C3CCC(=O)NC3=O)C4=O)cc2)C(=O)Nc2nc(-c3ccccc3)cs2)c1 (stereo partly drawn)", "Metric": "Dmax", "Measurement": "< 50%"}
{"Molecule": "Cc1c(C(=O)NCC(=O)Nc2nc(-c3cccc(-c4ccnc(N(C)CC(=O)NCCCCCNc5cccc6c5C(=O)N(C5CCC(=O)NC5=O)C6=O)c4)c3)cs2)cn(S(=O)(=O)C(C)C)c1C (stereo not drawn)", "Metric": "Dmax", "Measurement": "< 50%"}
{"Molecule": "CS(=O)(=O)n1ccc(C(=O)N[C@@H](COCc2ccc(C(=O)NCCOCCOCCOCCNC(=O)COc3ccc4c(c3)C(=O)N(C3CCC(=O)NC3=O)C4=O)cc2)C(=O)Nc2nc(-c3ccccc3)cs2)c1 (stereo partly drawn)", "Metric": "Dmax", "Measurement": "< 50%"}
{"Molecule": "CS(=O)(=O)n1ccc(C(=O)NCC(=O)Nc2nc(-c3cccc(-c4ccnc(N5CCN(C(=O)CCOCCOCCOc6ccc7c(c6)C(=O)N(C6CCC(=O)NC6=O)C7=O)CC5)c4)c3)cs2)c1 (stereo not drawn)", "Metric": "Dmax", "Measurement": "> 75%"}
{"Molecule": "Cc1ncsc1-c1ccc(CNC(=O)[C@@H]2C[C@@H](O)CN2C(=O)[C@@H](NC(=O)CCCCCCC(=O)N(C)Cc2cc(-c3cccc(-c4csc(NC(=O)CNC(=O)c5ccn(S(C)(=O)=O)c5)n4)c3)ccn2)C(C)(C)C)cc1", "Metric": "Dmax", "Measurement": "> 75%"}
{"Molecule": "Cc1ncsc1-c1ccc(CNC(=O)[C@@H]2C[C@@H](O)CN2C(=O)[C@@H](NC(=O)COCC(=O)NCCOc2cc(-c3cccc(-c4csc(NC(=O)CNC(=O)c5ccn(S(C)(=O)=O)c5)n4)c3)ccn2)C(C)(C)C)cc1", "Metric": "Dmax", "Measurement": "< 50%"}
{"Molecule": "Cc1ncsc1-c1ccc(CNC(=O)[C@@H]2C[C@@H](O)CN2C(=O)[C@@H](NC(=O)CCC(=O)N2CCN(c3cc(-c4cccc(-c5csc(NC(=O)CNC(=O)c6ccn(S(C)(=O)=O)c6)n5)c4)ccn3)CC2)C(C)(C)C)cc1", "Metric": "Dmax", "Measurement": "< 50%"}
{"Molecule": "CS(=O)(=O)n1ccc(C(=O)NCC(=O)Nc2nc(-c3cccc(-c4ccnc(OCCNC(=O)C5CC5CNC(=O)COc5ccc6c(c5)C(=O)N(C5CCC(=O)NC5=O)C6=O)c4)c3)cs2)c1 (stereo not drawn)", "Metric": "Dmax", "Measurement": "< 50%"}
{"Molecule": "CS(=O)(=O)n1ccc(C(=O)N[C@@H](COCc2ccc(C(=O)NCCOc3ccc4c(c3)C(=O)N(C3CCC(=O)NC3=O)C4=O)cc2)C(=O)Nc2nc(-c3ccccc3)cs2)c1 (stereo partly drawn)", "Metric": "Dmax", "Measurement": "< 50%"}
{"Molecule": "CN(CC(=O)NCCCCCCCCNC(=O)COc1cccc2c1C(=O)N(C1CCC(=O)NC1=O)C2=O)c1cc(-c2cccc(-c3csc(NC(=O)CNC(=O)c4ccn(S(C)(=O)=O)c4)n3)c2)ccn1 (stereo not drawn)", "Metric": "Dmax", "Measurement": "< 50%"}
{"Molecule": "CS(=O)(=O)n1ccc(C(=O)N[C@@H](COCc2ccc(C(=O)N3CCC4(CC3)CC(Oc3ccc5c(c3)C(=O)N(C3CCC(=O)NC3=O)C5=O)C4)cc2)C(=O)Nc2nc(-c3ccccc3)cs2)c1 (stereo partly drawn)", "Metric": "Dmax", "Measurement": "< 50%"}
{"Molecule": "Cc1ncsc1-c1ccc(CNC(=O)[C@@H]2C[C@@H](O)CN2C(=O)[C@@H](NC(=O)COCC(=O)NCc2cccc(-c3cccc(-c4csc(NC(=O)CNC(=O)c5ccn(S(C)(=O)=O)c5)n4)c3)c2)C(C)(C)C)cc1", "Metric": "Dmax", "Measurement": "< 50%"}
{"Molecule": "CS(=O)(=O)n1ccc(C(=O)NCC(=O)Nc2nc(C3CCCN(C(=O)CCN4CCN(c5ccc6c(c5)C(=O)N(C5CCC(=O)NC5=O)C6=O)CC4)C3)cs2)c1 (stereo not drawn) [Compound 146, formate]", "Metric": "Dmax", "Measurement": "< 50%"}
{"Molecule": "CS(=O)(=O)n1ccc(C(=O)NCC(=O)Nc2nc(-c3cccc(-c4cccc(CNC(=O)C5CC5CNC(=O)COc5ccc6c(c5)C(=O)N(C5CCC(=O)NC5=O)C6=O)c4)c3)cs2)c1 (stereo not drawn)", "Metric": "Dmax", "Measurement": "50 to 75%"}
{"Molecule": "Cc1ncsc1-c1ccc(CNC(=O)[C@@H]2C[C@@H](O)CN2C(=O)[C@@H](NC(=O)CCCCCCCC(=O)NCc2cccc(-c3cccc(-c4csc(NC(=O)CNC(=O)c5ccn(S(C)(=O)=O)c5)n4)c3)c2)C(C)(C)C)cc1", "Metric": "Dmax", "Measurement": "> 75%"}

Source listed as patent US12662479B2.
